Test system: S. aureus ATCC 25923
method.description: MIC/MBC microdilution assay
Type: cell-based, Staphylococcus aureus
settings: plated on MHA, overnight 37 °C, n = 2
Peptide text beside a SMILES is read from it.
Give Antibacterial activity, MBC for every item shown.

Reference set, count: 3
Exam item: For CSCC[C@H](NC(=O)[C@H](CCCNC(=N)N)NC(=O)[C@H](Cc1c[nH]c2ccccc12)NC(=O)[C@H](CCC(N)=O)NC(=O)[C@H](Cc1c[nH]c2ccccc12)NC(=O)[C@H](CCCNC(=N)N)NC(=O)[C@@H](N)CCCNC(=N)N)C(=O)N[C@@H](CCCCN)C(=O)N[C@@H](CCCCN)C(=O)N[C@@H](CC(C)C)C(=O)NCC(N)=O [LfcinB (20–30)] (H-RRWQWRMKKLG-NH2) , what is its reported Antibacterial activity, MBC?
Marked response: > 130 µM

Exam item: For N=C(N)NCCC[C@H](NC(=O)[C@H](Cc1c[nH]c2ccccc12)NC(=O)[C@H](CCC(N)=O)NC(=O)[C@H](Cc1c[nH]c2ccccc12)NC(=O)[C@H](CCCNC(=N)N)NC(=O)[C@H](Cc1c[nH]c2ccccc12)NC(=O)[C@H](CCC(N)=O)NC(=O)[C@H](Cc1c[nH]c2ccccc12)NC(=O)[C@@H](N)CCCNC(=N)N)C(N)=O [LfcinB (21–25)Pal] (H-RWQWRWQWR-NH2) , what is its reported Antibacterial activity, MBC?
Marked response: > 135 µM

Exam item: For N=C(N)NCCC[C@H](NC(=O)[C@H](Cc1c[nH]c2ccccc12)NC(=O)[C@H](CCC(N)=O)NC(=O)[C@H](Cc1c[nH]c2ccccc12)NC(=O)[C@H](CCCNC(=N)N)NC(=O)[C@@H](N)CCCNC(=N)N)C(N)=O [LfcinB (20–25)] (H-RRWQWR-NH2) , what is its reported Antibacterial activity, MBC?
Marked response: > 203 µM

---
Exam item: For CSCC[C@H](NC(=O)[C@H](CCCNC(=N)N)NC(=O)[C@H](Cc1c[nH]c2ccccc12)NC(=O)[C@H](CCC(N)=O)NC(=O)[C@H](Cc1c[nH]c2ccccc12)NC(=O)[C@H](CCCNC(=N)N)NC(=O)[C@H](CCCNC(=N)N)NC(=O)[C@H](C)NC(=O)[C@H](CCCCN)NC(=O)[C@@H](N)Cc1ccccc1)C(=O)N[C@@H](CCCCN)C(=O)N[C@@H](CCCCN)C(=O)N[C@@H](CC(C)C)C(=O)NCC(=O)N[C@@H](C)C(N)=O [[Ala^19]-LfcinB (17–31)] , what is its reported Antibacterial activity, MBC?
Marked response: > 102 µM

###

Tested on: P. aeruginosa ATCC 27853
method.description: MIC/MBC microdilution assay
Format: cell-based, Pseudomonas aeruginosa
settings: plated on MHA, overnight 37 °C, n = 2
Peptide text beside a SMILES is read from it.
Give Antibacterial activity, MBC for every item shown.

Reference set, count: 3
Exam item: For CSCC[C@H](NC(=O)[C@H](CCCNC(=N)N)NC(=O)[C@H](Cc1c[nH]c2ccccc12)NC(=O)[C@H](CCC(N)=O)NC(=O)[C@H](Cc1c[nH]c2ccccc12)NC(=O)[C@H](CCCNC(=N)N)NC(=O)[C@H](CCCNC(=N)N)NC(=O)[C@H](C)NC(=O)[C@H](CCCCN)NC(=O)[C@@H](N)Cc1ccccc1)C(=O)N[C@@H](CCCCN)C(=O)N[C@@H](CCCCN)C(=O)N[C@@H](CC(C)C)C(=O)NCC(=O)N[C@@H](C)C(N)=O [[Ala^19]-LfcinB (17–31)] , what is its reported Antibacterial activity, MBC?
Marked response: > 102 µM

Exam item: For CSCC[C@H](NC(=O)[C@H](CCCNC(=N)N)NC(=O)[C@H](Cc1c[nH]c2ccccc12)NC(=O)[C@H](CCC(N)=O)NC(=O)[C@H](Cc1c[nH]c2ccccc12)NC(=O)[C@H](CCCNC(=N)N)NC(=O)[C@@H](N)CCCNC(=N)N)C(=O)N[C@@H](CCCCN)C(=O)N[C@@H](CCCCN)C(=O)N[C@@H](CC(C)C)C(=O)NCC(N)=O [LfcinB (20–30)] (H-RRWQWRMKKLG-NH2) , what is its reported Antibacterial activity, MBC?
Marked response: > 130 µM

Exam item: For N=C(N)NCCC[C@H](NC(=O)[C@H](Cc1c[nH]c2ccccc12)NC(=O)[C@H](CCC(N)=O)NC(=O)[C@H](Cc1c[nH]c2ccccc12)NC(=O)[C@H](CCCNC(=N)N)NC(=O)[C@@H](N)CCCNC(=N)N)C(N)=O [LfcinB (20–25)] (H-RRWQWR-NH2) , what is its reported Antibacterial activity, MBC?
Marked response: > 203 µM

Please turn your attention to the following entry.
Exam item: For N=C(N)NCCC[C@H](NC(=O)[C@H](Cc1c[nH]c2ccccc12)NC(=O)[C@H](CCC(N)=O)NC(=O)[C@H](Cc1c[nH]c2ccccc12)NC(=O)[C@H](CCCNC(=N)N)NC(=O)[C@H](Cc1c[nH]c2ccccc12)NC(=O)[C@H](CCC(N)=O)NC(=O)[C@H](Cc1c[nH]c2ccccc12)NC(=O)[C@@H](N)CCCNC(=N)N)C(N)=O [LfcinB (21–25)Pal] (H-RWQWRWQWR-NH2) , what is its reported Antibacterial activity, MBC?
Marked response: 135 µM

###

Test system: P. aeruginosa ATCC 27853
method.description: MIC/MBC microdilution assay
Assay type: cell-based, Pseudomonas aeruginosa
settings: microdilution, 24 h at 37 °C, absorbance 620 nm, n = 2
Peptide text beside a SMILES is read from it.
recorded.metric: Antibacterial activity, MIC

Reference set, count: 3
Exam item: Any idea what Antibacterial activity, MIC came out for N=C(N)NCCC[C@H](NC(=O)[C@H](Cc1c[nH]c2ccccc12)NC(=O)[C@H](CCC(N)=O)NC(=O)[C@H](Cc1c[nH]c2ccccc12)NC(=O)[C@H](CCCNC(=N)N)NC(=O)[C@@H](N)CCCNC(=N)N)C(N)=O [LfcinB (20–25)] (H-RRWQWR-NH2) on P. aeruginosa ATCC 27853?
Marked response: 203 µM

Exam item: Any idea what Antibacterial activity, MIC came out for CSCC[C@H](NC(=O)[C@H](CCCNC(=N)N)NC(=O)[C@H](Cc1c[nH]c2ccccc12)NC(=O)[C@H](CCC(N)=O)NC(=O)[C@H](Cc1c[nH]c2ccccc12)NC(=O)[C@H](CCCNC(=N)N)NC(=O)[C@@H](N)CCCNC(=N)N)C(=O)N[C@@H](CCCCN)C(=O)N[C@@H](CCCCN)C(=O)N[C@@H](CC(C)C)C(=O)NCC(N)=O [LfcinB (20–30)] (H-RRWQWRMKKLG-NH2) on P. aeruginosa ATCC 27853?
Marked response: > 130 µM

Exam item: Any idea what Antibacterial activity, MIC came out for N=C(N)NCCC[C@H](NC(=O)[C@H](Cc1c[nH]c2ccccc12)NC(=O)[C@H](CCC(N)=O)NC(=O)[C@H](Cc1c[nH]c2ccccc12)NC(=O)[C@H](CCCNC(=N)N)NC(=O)[C@H](Cc1c[nH]c2ccccc12)NC(=O)[C@H](CCC(N)=O)NC(=O)[C@H](Cc1c[nH]c2ccccc12)NC(=O)[C@@H](N)CCCNC(=N)N)C(N)=O [LfcinB (21–25)Pal] (H-RWQWRWQWR-NH2) on P. aeruginosa ATCC 27853?
Marked response: 67 µM

Please turn your attention to the following entry.
Exam item: Any idea what Antibacterial activity, MIC came out for CSCC[C@H](NC(=O)[C@H](CCCNC(=N)N)NC(=O)[C@H](Cc1c[nH]c2ccccc12)NC(=O)[C@H](CCC(N)=O)NC(=O)[C@H](Cc1c[nH]c2ccccc12)NC(=O)[C@H](CCCNC(=N)N)NC(=O)[C@H](CCCNC(=N)N)NC(=O)[C@H](C)NC(=O)[C@H](CCCCN)NC(=O)[C@@H](N)Cc1ccccc1)C(=O)N[C@@H](CCCCN)C(=O)N[C@@H](CCCCN)C(=O)N[C@@H](CC(C)C)C(=O)NCC(=O)N[C@@H](C)C(N)=O [[Ala^19]-LfcinB (17–31)] on P. aeruginosa ATCC 27853?
Marked response: 102 µM

This collection of values is drawn from paper PMC9061098.
